experimentalTarget: IRAK4 (Homo sapiens (Human), UniProt Q9NWZ3)
Sequence (Q9NWZ3 whole entry): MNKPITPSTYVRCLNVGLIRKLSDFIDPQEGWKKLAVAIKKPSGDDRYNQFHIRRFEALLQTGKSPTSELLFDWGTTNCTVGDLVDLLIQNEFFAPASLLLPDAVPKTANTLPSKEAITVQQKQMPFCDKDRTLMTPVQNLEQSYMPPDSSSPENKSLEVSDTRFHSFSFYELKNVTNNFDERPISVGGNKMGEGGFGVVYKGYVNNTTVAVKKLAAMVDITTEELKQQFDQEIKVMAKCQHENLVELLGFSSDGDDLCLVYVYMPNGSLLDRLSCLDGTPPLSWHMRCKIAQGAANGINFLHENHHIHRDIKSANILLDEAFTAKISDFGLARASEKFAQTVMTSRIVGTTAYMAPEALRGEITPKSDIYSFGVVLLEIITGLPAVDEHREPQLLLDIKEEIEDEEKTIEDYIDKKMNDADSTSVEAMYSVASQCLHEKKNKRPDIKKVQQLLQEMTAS
assayInfo: Western Assay for IRAK4 Degradation
Assay type: cell-based
conditionContext: wild-type Jurkat cells, 4 hrs; approximate
observable: Dmax (%)

// worked examples, Dmax included
- molecule: "Cc1ncsc1-c1ccc(CNC(=O)[C@@H]2C[C@@H](O)CN2C(=O)[C@@H](NC(=O)CCCC(=O)N2CCN(c3nnc(-c4cnc(-c5ccc6cc(C#N)cnn56)cc4NC(C)C)s3)CC2)C(C)(C)C)cc1"
  uom: "%"
  resultNumber: 86
- molecule: "CC(C)Nc1cc(-c2ccc3cc(C#N)cnn23)ncc1-c1nnc(N2CCN(C(=O)C3CCN(Cc4ccc5c(c4)C(=O)N(C4CCC(=O)NC4=O)C5=O)CC3)CC2)s1 (stereo not drawn)"
  uom: "%"
  resultNumber: 87
- molecule: "CC[C@@H]1[C@H](F)C(=O)N[C@@H]1COc1ncc(C#CCN2CCC3(CC2)CCN(c2ncc(C(=O)N[C@H](C(=O)N4C[C@H](O)C[C@H]4C(=O)NCc4ccc(-c5scnc5C)cc4)C(C)(C)C)cn2)CC3)c2cc(C(N)=O)c(OC)cc12 [Comparative b1, reference compound]"
  uom: "%"
  resultNumber: 86
- molecule: "CC(C)Nc1cc(-c2ccc3cc(C#N)cnn23)ncc1-c1nnc(N2CCN(C(=O)C3CCN(CC4CCN(c5ccc(-c6nn(C7CCC(=O)NC7=O)c(=O)n6C)cc5)CC4)CC3)CC2)s1 (stereo not drawn)"
  uom: "%"
  resultNumber: 90

[1] Cc1ncsc1-c1ccc(CNC(=O)[C@@H]2C[C@@H](O)CN2C(=O)[C@@H](NC(=O)C2(F)CC2)C(C)(C)C)c(OCCOCCC(=O)N2CCN(c3nnc(-c4cnc(-c5ccc6cc(C#N)cnn56)cc4NC(C)C)s3)CC2)c1
[2] NC(=O)c1nn(-c2ccc(C(=O)NCCOCCOCCNc3cccc4c3C(=O)N(C3CCC(=O)NC3=O)C4=O)cc2)cc1NC(=O)c1coc(-c2ccnc(NCC(F)(F)F)c2)n1 (stereo not drawn) [Comparative Compound a2, reference compound]
Q: # returns the entry with the larger Dmax; inputs 1 and 2 When you have decided, please share the label of that item.
A: 1
(1: 99%, 2: 54%)
